The origin of these recorded values is the supplement of paper PMC6522484.

Items are presented alongside their recorded TCF/Wnt firefly luciferase reporter signal.
- System: SW480
- test-details: TCF/Wnt firefly luciferase reporter signal relative to plate median (fraction of plate median); higher = higher Wnt reporter signal
- experimental-conditions: 5 µM; treatment time 24 h; reporter: 7TFP
measurement-kind: TCF/Wnt firefly luciferase reporter signal

INSERT INTO measurements (compound, test_result) VALUES
  ('CCCCCC[C@H]1CC[C@@](O)([C@@](C)(O)C(=O)N[C@@H]2C(=O)N3NCCC[C@@H]3C(=O)N(O)[C@@H](COC)C(=O)NCC(=O)N3NCCC[C@H]3C(=O)N(O)[C@H](C)C(=O)O[C@H]2C)OC1C (some centres undefined) [Diperamycin]', 0.926),
  ('NC[C@H]1CC[C@H](C(=O)O)CC1', 0.981),
  ('CC(=O)OC(C)C[N+](C)(C)C (centres undefined)', 1.01),
  ('O=C(O)c1nc2cc(Cl)c(Cl)cc2nc1O', 0.951),
  ('C=C1C[C@]23C[C@@]1(O)CC[C@H]2[C@@]12C=C[C@H](O)[C@@](C)(C(=O)O1)[C@H]2[C@@H]3C(=O)O', 0.869),
  ('CCOc1ccc2ccccc2c1C(=O)N[C@@H]1C(=O)N2[C@@H]1SC(C)(C)[C@@H]2C(=O)O', 1.12),
  ('COc1ccc2cc1Oc1ccc(cc1)C[C@H]1c3c(cc4c(c3Oc3cc5c(cc3OC)CCN(C)[C@@H]5C2)OCO4)CCN1C', 1.05),
  ('C[C@@H]1Cc2cc(O)cc(O)c2C(=O)O[C@H](C)CC(=O)O[C@H](CO)CC(=O)O[C@H](C)Cc2cc(O)cc(O)c2C(=O)O[C@H](C)CC(=O)O1', 1.05),
  ('CC(=O)Nc1cc2nc3ccccc3oc-2cc1=O [N-Acetylquestiomycin A]', 1.15),
  ('CC1(C)S[C@@H]2[C@H](NC(=O)COc3ccccc3)C(=O)N2[C@H]1C(=O)O', 1.08),
  ('NC[C@H](O)c1ccc(O)c(O)c1', 0.984),
  ('CC(C)c1c(O)ccc2c1CCC1[C@@](C)(C=O)CCC[C@]21C (some centres undefined)', 1.08),
  ('CC[C@]12CCCN3CCc4c(n(c5ccccc45)[C@@](O)(C(=O)OC)C1)[C@@H]32', 0.971),
  ('C#C[C@]1(O)CC[C@H]2[C@@H]3CCC4=CCCC[C@@H]4[C@H]3CC[C@@]21C', 0.905),
  ('CCN(CC)CCNC(=O)c1ccc(N)cc1', 1.08),
  ('CNC1(C)C2CCC(C2)C1(C)C (centres undefined)', 0.904),
  ('COc1c(O)cc2c(-c3ccccc3)cc(=O)oc2c1OC', 0.977),
  ('COC(=O)C[C@H]1C2(C)CC34OC5(C)O[C@@]6([C@H](OC)C(OC(=O)C(C)C)[C@]7(C)C(/C(=C(/OC)C(C)C)C(=O)O[C@H]7c7ccoc7)[C@@]6(O5)[C@H](OC)[C@@]3(OC)C2OC(C)=O)[C@]14C (some centres undefined)', 0.903),
  ('CC(=O)O[C@@H]1CC2C(C)(C)[C@H](O)C=C[C@]2(C)C2CC[C@@]3(C)[C@H](c4ccoc4)OC(=O)C4OC43[C@@]21C (some centres undefined)', 0.926);

* * *

- Test system: DLD1
- test-details: TCF/Wnt firefly luciferase reporter signal relative to plate median (fraction of plate median); higher = higher Wnt reporter signal
- experimental-conditions: 5 µM; treatment time 24 h; reporter: 7TFP
Quick reference for TCF/Wnt firefly luciferase reporter signal among some compounds
measurement-kind: TCF/Wnt firefly luciferase reporter signal

INSERT INTO assay_data (compound, tested_target, test_result) VALUES
  ('NCCCC(=O)O [gamma-AMINOBUTYRIC ACID]', 'DLD1', 1.06),
  ('CCCCC[C@@H](O)[C@H]1C(=O)O[C@H](C)[C@@H](O)/C=C/C=C/C=C/C=C/C=C(\C)[C@@H](O)C[C@H](O)C[C@H](O)C[C@H](O)C[C@H](O)C[C@H](O)C[C@@H]1O', 'DLD1', 1.01),
  ('CCOC(=O)c1c(C)c(Cl)c(O)c(Cl)c1O', 'DLD1', 0.966),
  ('CC(C)=CCC1=C(O)C(=O)c2ccccc2C1=O', 'DLD1', 1.15),
  ('Cc1cc(O)c2c(c1)C(=O)c1cccc(O)c1C2=O', 'DLD1', 0.893),
  ('O=C([O-])c1ccccc1O.[Na+]', 'DLD1', 1.04),
  ('CC(C(=O)O)[C@H]1CCC2C3CC=C4C[C@@H](O)CC[C@]4(C)C3CC[C@@]21C (stereo partly drawn) [3beta-HYDROXY-23,24-BISNORCHOL-5-ENIC ACID]', 'DLD1', 1.01),
  ('O=C(O)c1cc(=O)c2ccccc2[nH]1', 'DLD1', 0.876),
  ('CC(=O)CC(=O)CCC(=O)O', 'DLD1', 0.844),
  ('O=c1[nH]cc(F)c(=O)[nH]1', 'DLD1', 1.01);

* * *

- Tested on: DLD1
- test-details: cell viability (CellTiter-Glo) relative to plate median (fraction of plate median); higher = more viable cells
- experimental-conditions: 5 µM; treatment time 24 h; reporter: 7TFP
Label key: Condition met means cell viability under 1; Condition not met means cell viability of 1 or more.

INSERT INTO assay_data (molecule, category) VALUES
  ('CC(=O)NS(=O)(=O)c1ccc(NC(=O)c2ccccc2C(=O)O)cc1', 'Condition met'),
  ('CNCCC(Oc1ccc(C(F)(F)F)cc1)c1ccccc1 (stereo unspecified)', 'Condition met'),
  ('C=C[C@]1(C)C=C2C(=O)[C@@]3(O)OC(=O)[C@@]4(CCCC(C)(C)[C@H]34)[C@@]2(O)CC1 [Sphaeropsidin A]', 'Condition met'),
  ('O=c1c(-c2ccc(O)cc2)coc2cc(O)cc(O)c12 [Genistein (Biofocus)]', 'Condition not met'),
  ('C/C=C/C/C=C/CCC(=O)[C@H]1O[C@H]1C(N)=O [Cerulenin]', 'Condition met'),
  ('C[C@@H]1CC[C@]2(C(=O)O[C@@H]3O[C@H](CO)[C@@H](O)[C@H](O)[C@H]3O)CC[C@]3(C)C(=CC[C@@H]4[C@@]5(C)C[C@@H](O)[C@H](O)[C@@](C)(CO)[C@@H]5CC[C@]43C)[C@@H]2[C@]1(C)O [Nigaichigoside F1]', 'Condition not met'),
  ('COC(=O)/C(=C1/OC(=O)C(c2ccccc2)=C1O)c1ccccc1', 'Condition not met'),
  ('CC(C(=O)O)c1ccc(-c2ccccc2)c(F)c1 (stereo unspecified)', 'Condition not met'),
  ('CN1C(C(=O)Nc2ccccn2)=C(O)c2sccc2S1(=O)=O', 'Condition met'),
  ('COc1ccc([C@@H]2Sc3ccccc3N(CCN(C)C)C(=O)[C@@H]2OC(C)=O)cc1', 'Condition met'),
  ('CCc1cc(C(N)=S)ccn1', 'Condition met'),
  ('Cc1oncc1C(=O)Nc1ccc(C(F)(F)F)cc1', 'Condition not met'),
  ('O=c1cc(CO)occ1O [Kojic acid (Biofocus)]', 'Condition met'),
  ('O=NN(CCCl)C(=O)NCCCl', 'Condition not met'),
  ('O=C1NCC(=O)N2CCCC12 (stereo unspecified) [Cyclo(glycylprolyl)]', 'Condition met');

* * *

- Tested on: SW480
- test-details: TCF/Wnt firefly luciferase reporter signal relative to plate median (fraction of plate median); higher = higher Wnt reporter signal
- experimental-conditions: 5 µM; treatment time 24 h; reporter: 7TFP
Label 1 (yes) for high-side TCF/Wnt firefly luciferase reporter signal (at or above 1) and 0 (no) for low-side TCF/Wnt firefly luciferase reporter signal (below it).

INSERT INTO measurements (molecule, category) VALUES
  ('CCOC(=O)[C@H](CCc1ccccc1)N[C@@H](C)C(=O)N1Cc2ccccc2C[C@H]1C(=O)O', '0 (no)'),
  ('O=C1C[C@@H](c2ccc(O)cc2)Oc2cc(O)cc(O)c21', '1 (yes)'),
  ('CCCCCCCCCCCCCCCC[N+](C)(C)C', '0 (no)'),
  ('CS(=O)(=O)c1ccc([C@@H](O)[C@@H](CO)NC(=O)C(Cl)Cl)cc1', '0 (no)'),
  ('COC(=O)C1=CO[C@@H](O[C@@H]2O[C@H](CO)[C@@H](O)[C@H](O)[C@H]2O)[C@@H]2[C@@H](C)CC(=O)[C@]12O', '1 (yes)'),
  ('CCN(CC)CCNC(=O)c1cc(Br)c(N)cc1OC', '1 (yes)'),
  ('CNC[C@H](O)c1cccc(O)c1', '1 (yes)'),
  ('O=C(O)c1cc(O)ccc1O', '1 (yes)'),
  ('C=CC(C)(O)CCC=C(C)CCC=C(C)C (mixture of isomers)', '0 (no)'),
  ('CC(=O)Oc1ccc(O)cc1', '1 (yes)'),
  ('NCCOB(c1ccccc1)c1ccccc1', '1 (yes)'),
  ('N=C(N)N/N=C/c1c(Cl)cccc1Cl', '1 (yes)'),
  ('O=C1CC2(CCCC2)CC(=O)N1CCCCN1CCN(c2ncccn2)CC1', '1 (yes)'),
  ('O=C(O)CCCN1C(=O)c2cccc3cccc(c23)C1=O', '0 (no)'),
  ('CC(=O)Oc1c(C)c(C)c2c(c1C)CCC(C)(CCCC(C)CCCC(C)CCCC(C)C)O2 (stereo not drawn) [alpha-TOCHOPHERYL ACETATE]', '1 (yes)'),
  ('COc1ccc2c(c1)O[C@H]1c3ccc(OC)cc3OC[C@@H]21', '0 (no)');
